Test system: HEK293 cells with a knocked-in STING receptor (IRF and IFNβ-pathway activation)
ASSAY_INFO: HEK STING assay with and without PFO (membrane permeabilization)
Type: cell-based
ASSAY_SETUP: Homo sapiens, HEK293, Activity w/o permeabilization; read-out: HEK IRF EC50
MEASUREMENT_LABEL: EC50

Incoming: Request: EC50, test system HEK293 cells with a knocked-in STING receptor (IRF and IFNβ-pathway activation), entry CCn1nc(C)cc1C(=O)Nc1nc2cc(CO)cc(OC)c2n1C/C=C/Cn1c(NC(=O)c2cc(C)nn2CC)nc2cc(C(N)=O)cc(OCCCN3CCOCC3)c21 [Compound XL]
Outgoing: 0.53 nM

----------
Tested on: STING signaling (IRF and NFKB-pathway activation) in THP1 Dual Cells
ASSAY_INFO: THP-1 assay (THP1 Dual reporter cells, IRF / NFkB pathway activation)
Type: cell-based
ASSAY_SETUP: Homo sapiens; THP1 Dual cells, 24 h incubation, IRF pathway; read-out: THP-1 EC50 (IRF)
Experimental: THP1 Dual Cells™, were purchased from Invivogen (Cat. thpd-nfis), and used to determine the biological activity of the compounds on a molecular level and to determine downstream activation of STING signaling (IRF and NFKB-pathway activation). […] The read outs were be performed according to the manufacturer's instructions. EC50 values were calculated using GraphPad Prism 9.
Rule: EC50 below 300 nM gives Fulfilled. Equal to or above 300 nM gives Not fulfilled.

Incoming: Record CCn1nc(C)cc1C(=O)Nc1nc2cc(C(=O)N(C)N)cc(OC)c2n1C/C=C/Cn1c(NC(=O)c2cc(C)nn2CC)nc2cc(C(N)=O)cc(OCCCN3CCOCC3)c21 [II-C] : is its EC50 strictly below 300 nM?
Outgoing: Fulfilled

Incoming: Please check: EC50 for CCn1nc(C)cc1C(=O)Nc1nc2cc(C(=O)NNC)cc(OC)c2n1C/C=C/Cn1c(NC(=O)c2cc(C)nn2CC)nc2cc(C(N)=O)cc(OCCCN3CCOCC3)c21 [II-B] , strictly under 300 nM or not?
Outgoing: Not fulfilled

Incoming: Determine whether this molecule shows EC50 lower than 300 nM (ties excluded): CCn1nc(C)cc1C(=O)Nc1nc2cc(C(=O)NN)cc(OC)c2n1C/C=C/Cn1c(NC(=O)c2cc(C)nn2CC)nc2cc(C(N)=O)cc(OCCCN3CCOCC3)c21 [II-A]
Outgoing: Fulfilled

Incoming: API: query returns whether the molecule falls strictly under 300 nM in EC50. Query: CCn1nc(C)cc1C(=O)Nc1nc2cc(C(N)=O)cc(OC)c2n1C/C=C/Cn1c(NC(=O)c2cc(C)nn2CC)nc2cc(C(N)=O)cc(OCCCC(=O)N(N)CCN)c21 [I-J]
Outgoing: Fulfilled

Incoming: State whether 300 nM exceeds EC50 recorded for CCn1nc(C)cc1C(=O)Nc1nc2cc(C(N)=O)cc(OC)c2n1C/C=C/Cn1c(NC(=O)c2cc(C)nn2CC)nc2cc(C(N)=O)cc(OCCCC(=O)N3CCN(N)CC3)c21 [I-K] .
Outgoing: Fulfilled
